Where these numbers come from: PubChem BioAssay AID488821

- PROTOCOL_TEXT: Counterscreen Assay for Enhancers of SMN2 Splice Variant Expression: Modulation of SMN1 Expression for Further Probe SAR
- DETAILS: HEK293 SMN1-luciferase reporter, luminescence, 30-36 h; series mostly up to 46.1 µM
Records with an inconclusive call do not appear. The source made the active and inactive calls. The call rests on the fitted dose curve; in most records, active means well fitted inhibition curve with a large enough effect; inconclusive means small, poorly fitted or top-dose-only effect, or effect the other way; inactive means flat fitted curve, though single readings scatter.
Your answer must be one of the following: active, inactive

Check the results log: what was the call for "NC(=O)C1CCN(c2ncc(-c3ccc4c(c3)OCO4)s2)CC1" ? active

Check the results log: what was the call for "CN(C)c1cccc(-c2cnc(N3CCC(C(N)=O)CC3)nc2)c1" ? active

Check the results log: what was the call for "NC(=O)C1CCN(c2nc(-c3ccc(Oc4ccccc4)cc3)cs2)CC1" ? inactive

Check the results log: what was the call for "NC(=O)C1CCN(c2nnc(-c3ccc(Br)cc3)s2)CC1" ? active

Check the results log: what was the call for "CS(=O)(=O)N1CCN(c2nc(-c3ccc(Br)cc3)cs2)CC1" ? inactive

Check the results log: what was the call for "NC(=O)C1CCN(c2nc(-c3cccc([N+](=O)[O-])c3)cs2)CC1" ? inactive

Check the results log: what was the call for "CS(=O)(=O)c1ccc(-c2csc(N3CCC(C(N)=O)CC3)n2)cc1" ? inactive

Check the results log: what was the call for "Cc1cccc(-c2csc(N3CCC(C(N)=O)CC3)n2)c1" ? inactive

Check the results log: what was the call for "CN(C)c1cccc(-c2cc(N3CCC(C(N)=O)CC3)ncn2)c1" ? inactive

Check the results log: what was the call for "N#Cc1ccc(-c2csc(N3CCC(C(N)=O)CC3)n2)cc1" ? inactive

Check the results log: what was the call for "NC(=O)N1CCN(c2nc(-c3ccc(Br)cc3)cs2)CC1" ? inactive

Check the results log: what was the call for "NC(=O)C1CCN(c2ncc(-c3ccc4c(c3)OCCO4)s2)CC1" ? active

Check the results log: what was the call for "O=C(c1ccco1)N1CCN(c2nc(-c3ccc(Br)cc3)cs2)CC1" ? inactive

Check the results log: what was the call for "NC(=O)C1CCN(c2nccc(-c3ccc(Br)cc3)n2)CC1" ? active

Check the results log: what was the call for "CNC(=O)C1CCN(c2nc(-c3ccc(Br)cc3)cs2)CC1" ? inactive

Check the results log: what was the call for "O=C(Nc1ccccc1)C1CCN(c2ncc(-c3ccc4c(c3)OCCCO4)s2)CC1" ? active

Check the results log: what was the call for "NC(=O)C1CCN(c2nc(-c3ccc4c(c3)OCCCO4)cs2)CC1" ? active

Check the results log: what was the call for "NC(=O)C1CCN(c2ncc(-c3ccc4c(c3)OCCCO4)s2)CC1" ? active

Check the results log: what was the call for "O=C(Nc1ccccc1)C1CCN(c2nc(-c3ccc(Br)cc3)cs2)CC1" ? inactive

Check the results log: what was the call for "O=C(O)C1CCN(c2ncc(-c3ccc4c(c3)OCCCO4)s2)CC1" ? active

Check the results log: what was the call for "CN(C)c1cccc(-c2cnc(N3CCC(C(N)=O)CC3)s2)c1" ? active

Check the results log: what was the call for "Brc1ccc(-c2csc(N3CCNCC3)n2)cc1" ? active

Check the results log: what was the call for "NC(=O)C1CCN(c2nc(-c3ccccc3Cl)cs2)CC1" ? inactive

Check the results log: what was the call for "N#CC1CCN(c2nc(-c3ccc(Br)cc3)cs2)CC1" ? inactive

Check the results log: what was the call for "O=C(NCCCCc1ccccc1)C1CCN(c2nc(-c3ccc(Br)cc3)cs2)CC1" ? inactive

Check the results log: what was the call for "CCOC(=O)C1CCN(c2ncc(-c3ccc4c(c3)OCCCO4)s2)CC1" ? active

Check the results log: what was the call for "CC(C)Oc1ccc(-c2csc(N3CCC(C(N)=O)CC3)n2)cc1" ? inactive

Check the results log: what was the call for "Brc1ccc(-c2csc(N3CCC(c4nn[nH]n4)CC3)n2)cc1" ? inactive

Check the results log: what was the call for "NC(=O)C1CCN(c2ncc(-c3cccc(N4CCCC4)c3)s2)CC1" ? active

Check the results log: what was the call for "CC(C)Oc1cccc(-c2cnc(N3CCC(C(N)=O)CC3)s2)c1" ? active

Check the results log: what was the call for "NC(=O)C1CCN(c2nc(-c3ccccc3[N+](=O)[O-])cs2)CC1" ? inactive

Check the results log: what was the call for "NC(=O)C1CCN(c2ncc(Br)cn2)CC1" ? inactive

Check the results log: what was the call for "NC(=O)C1CCN(c2nc(-c3cccc4ccccc34)cs2)CC1" ? inactive

Check the results log: what was the call for "NC(=O)C1CCN(c2nc(-c3cccc(F)c3)cs2)CC1" ? inactive

Check the results log: what was the call for "CN(C)c1cccc(-c2nnc(N3CCC(C(N)=O)CC3)s2)c1" ? active

Check the results log: what was the call for "NC(=O)C1CCN(c2ncc(-c3ccc(Cl)cc3)s2)CC1" ? active

Check the results log: what was the call for "CN(C)c1cccc(-c2nccc(N3CCC(C(N)=O)CC3)n2)c1" ? inactive

Check the results log: what was the call for "NC(=O)C1CCN(c2nc(-c3ccc(N)cc3)cs2)CC1" ? inactive

====

- PROTOCOL_TEXT: Counterscreen Assay for Enhancers of SMN2 Splice Variant Expression: Modulation of SMN1 Expression for Further Probe SAR
- DETAILS: HEK293 SMN1-luciferase reporter, luminescence, 30-36 h; series mostly up to 46.1 µM
Results filed as inconclusive are left out. Activity calls are given as the source filed them. Calls come from the whole dose curve; as a rule, active = well fitted inhibition curve with a large enough effect; inconclusive = small, poorly fitted or top-dose-only effect, or effect the other way; inactive = flat fitted curve, though single readings scatter.
Your answer must be one of the following: active, inactive

Check the results log: what was the call for "CN(C)c1cccc(-c2ncc(F)c(N3CCC(C(N)=O)CC3)n2)c1" ? inactive

Check the results log: what was the call for "NC(=O)C1CCN(c2nc(-c3cccc(Br)c3)cs2)CC1" ? inactive

Check the results log: what was the call for "CC(C)Oc1cccc(-c2ccnc(N3CCC(C(N)=O)CC3)n2)c1" ? active

Check the results log: what was the call for "CN(C)c1ccc(-c2csc(N3CCC(C(N)=O)CC3)n2)cc1" ? inactive

Check the results log: what was the call for "NC(=O)C1CCN(c2nc(-c3ccc4c(c3)CCO4)cs2)CC1" ? inactive

Check the results log: what was the call for "NC(=O)C1CCN(c2nccc(Cl)n2)CC1" ? inactive

Check the results log: what was the call for "Cc1cnc(N2CCC(C(N)=O)CC2)nc1-c1cccc(N(C)C)c1" ? inactive

Check the results log: what was the call for "O=C(C1CCN(c2nc(-c3ccc(Br)cc3)cs2)CC1)N1CCNCC1" ? inactive

Check the results log: what was the call for "CN(C)c1cccc(-c2ccnc(N3CCC(C(N)=O)CC3)n2)c1" ? inactive

Check the results log: what was the call for "c1c[nH]c(C2CCN(c3ncc(-c4ccc5c(c4)OCCCO5)s3)CC2)n1" ? active

Check the results log: what was the call for "CC(=O)C1CCN(c2ncc(-c3cccc(N(C)C)c3)s2)CC1" ? active
